biological target: N-acyl-phosphatidylethanolamine-hydrolyzing phospholipase D (Homo sapiens, UniProt Q6IQ20); assay: Inhibition of full length human NAPE-PLD expressed in HEK293T cell lysate using PED6 as substrate preincubated for 30 mins followed by substrate addition and measured at 2 mins interval for 1 hr by tecan-plate reader analysis; assay type: subcellular
Sequence (Q6IQ20 whole entry): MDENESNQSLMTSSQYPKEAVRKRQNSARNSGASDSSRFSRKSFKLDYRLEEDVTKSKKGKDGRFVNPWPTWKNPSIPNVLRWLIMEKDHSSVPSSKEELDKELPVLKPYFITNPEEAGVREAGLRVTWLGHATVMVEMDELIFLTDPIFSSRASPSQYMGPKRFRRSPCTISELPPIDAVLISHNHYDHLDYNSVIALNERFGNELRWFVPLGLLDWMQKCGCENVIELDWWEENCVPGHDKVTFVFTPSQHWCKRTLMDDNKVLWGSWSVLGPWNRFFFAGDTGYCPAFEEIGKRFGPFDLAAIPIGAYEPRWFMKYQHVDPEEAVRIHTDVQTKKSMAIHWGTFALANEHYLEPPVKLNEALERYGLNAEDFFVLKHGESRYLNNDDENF
Measured IC50 of individual entries

>  <molecule>
O=C(NCC1CC1)c1cc(N2CCOCC2)nc(NCc2ccccc2)n1

>  <measured-result>
22.9 µM

$$$$
>  <molecule>
O=C(NCC1CC1)c1cc(N2CCOCC2)nc(N2CCCCC2CC2CCCCC2)n1 (racemic)

>  <measured-result>
25.1 µM

$$$$
>  <molecule>
O=C(NCC1CC1)c1cc(N2CCOCC2)nc(Cl)n1

>  <measured-result>
> 50.1 µM

$$$$

I would be grateful if you could share the reported IC50 for `O=C(NCC1CC1)c1cc(N2CCOCC2)nc(N(CCc2ccccc2)c2ccccc2)n1` .
1.12 µM

Item: `CN(CCc1ccccc1)c1nc(C(=O)NCC2CC2)cc(N2CCN(C(=O)OCc3ccccc3)CC2)n1`
12.9 µM
